subject.of.test: SMARCA2 (Homo sapiens)
Construct: endogenous in cells; host or cells: HT1080 (CRISPR HiBiT knock-in clone, generated in house)
experiment.notes: SMARCA2 HiBiT degradation assay (cellular)
Type: cell-based
measurement.conditions: 6 h incubation; HiBiT-tagged SMARCA2, luminescence read-out; table head names A549; read-out: HiBit A549 SMARCA2 IP (nM) 6 h

{"compound": "Nc1nnc(-c2ccccc2O)cc1N1CC2CCC(C1)N2c1cccc(OCCN2CCN(C(=O)CCC3CCN(c4ccc5c(c4)C(=O)N(C4CCC(=O)NC4=O)C5=O)CC3)CC2)c1 (racemic) [Example 14]", "subject.of.test": "SMARCA2 (Homo sapiens)", "DC50 (nM)": 31}
{"compound": "Nc1nnc(-c2ccccc2O)cc1OCC(CNC(=O)C1CCN(c2ccc3c(c2)C(=O)N(C2CCC(=O)NC2=O)C3=O)CC1)c1ccccc1 (racemic) [Example 97]", "subject.of.test": "SMARCA2 (Homo sapiens)", "DC50 (nM)": 659}
{"compound": "Nc1nnc(-c2ccccc2O)cc1N1CC2CCC(C1)N2c1cccc(OC2CCN(C(=O)C3CCN(c4ccc5c(c4)C(=O)N(C4CCC(=O)NC4=O)C5=O)CC3)CC2)c1 (racemic) [Example 113]", "subject.of.test": "SMARCA2 (Homo sapiens)", "DC50 (nM)": 19}

* * *

subject.of.test: SMARCA2 (Homo sapiens, UniProt P51531)
Construct: endogenous in cells; host or cells: HT1080 (CRISPR HiBiT knock-in clone, generated in house)
Sequence (P51531 whole entry): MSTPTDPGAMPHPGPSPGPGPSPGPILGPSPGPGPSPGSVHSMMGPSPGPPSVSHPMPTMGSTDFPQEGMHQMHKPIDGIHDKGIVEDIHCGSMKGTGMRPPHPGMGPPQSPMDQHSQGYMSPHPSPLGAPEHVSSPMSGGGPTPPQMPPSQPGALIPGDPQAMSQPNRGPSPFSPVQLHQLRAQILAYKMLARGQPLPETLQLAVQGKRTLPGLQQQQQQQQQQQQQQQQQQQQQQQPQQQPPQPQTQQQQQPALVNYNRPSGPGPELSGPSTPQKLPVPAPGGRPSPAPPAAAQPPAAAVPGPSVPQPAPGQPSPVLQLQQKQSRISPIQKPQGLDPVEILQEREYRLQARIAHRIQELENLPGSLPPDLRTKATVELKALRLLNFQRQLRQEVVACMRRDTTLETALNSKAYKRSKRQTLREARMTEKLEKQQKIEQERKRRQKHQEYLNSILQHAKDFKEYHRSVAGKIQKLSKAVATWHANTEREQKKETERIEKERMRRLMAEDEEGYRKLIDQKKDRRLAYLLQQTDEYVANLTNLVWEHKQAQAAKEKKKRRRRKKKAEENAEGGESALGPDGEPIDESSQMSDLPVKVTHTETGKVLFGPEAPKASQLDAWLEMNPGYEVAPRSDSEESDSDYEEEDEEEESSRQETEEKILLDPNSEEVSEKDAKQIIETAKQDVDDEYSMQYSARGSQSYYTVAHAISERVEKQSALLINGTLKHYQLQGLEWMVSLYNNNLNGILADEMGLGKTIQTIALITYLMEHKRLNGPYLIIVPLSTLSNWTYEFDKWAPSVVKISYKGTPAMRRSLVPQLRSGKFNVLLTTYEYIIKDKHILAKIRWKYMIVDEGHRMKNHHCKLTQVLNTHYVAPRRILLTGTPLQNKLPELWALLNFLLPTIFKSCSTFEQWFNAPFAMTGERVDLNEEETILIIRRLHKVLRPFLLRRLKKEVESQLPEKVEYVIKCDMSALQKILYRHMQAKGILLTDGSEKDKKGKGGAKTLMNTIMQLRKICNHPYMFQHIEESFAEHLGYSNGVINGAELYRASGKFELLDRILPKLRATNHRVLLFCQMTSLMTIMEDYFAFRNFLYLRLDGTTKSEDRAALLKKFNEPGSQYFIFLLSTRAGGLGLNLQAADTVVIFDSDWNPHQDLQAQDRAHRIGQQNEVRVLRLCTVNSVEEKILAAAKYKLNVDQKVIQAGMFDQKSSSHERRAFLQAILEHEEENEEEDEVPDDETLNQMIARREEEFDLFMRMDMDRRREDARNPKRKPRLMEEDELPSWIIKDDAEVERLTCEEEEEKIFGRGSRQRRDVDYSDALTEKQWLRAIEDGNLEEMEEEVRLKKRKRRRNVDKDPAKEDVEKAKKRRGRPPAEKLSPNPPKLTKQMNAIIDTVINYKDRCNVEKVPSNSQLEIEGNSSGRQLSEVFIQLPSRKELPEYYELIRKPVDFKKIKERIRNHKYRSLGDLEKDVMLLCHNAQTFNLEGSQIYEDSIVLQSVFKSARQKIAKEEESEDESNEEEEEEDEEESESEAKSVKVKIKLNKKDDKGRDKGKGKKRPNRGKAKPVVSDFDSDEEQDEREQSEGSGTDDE
experiment.notes: SMARCA2 HiBiT degradation assay (cellular)
Type: cell-based
measurement.conditions: 6 h incubation; HiBiT-tagged SMARCA2, luminescence read-out; table head names A549; read-out: HiBit A549 SMARCA2 IP (nM) 6 h
Reported DC50 values follow for various compounds
measured.endpoint: DC50 (nM)

{"compound": "Nc1nnc(-c2ccccc2O)cc1N1CC(Oc2cccc(N3CCN(C(=O)CN4CCC(c5ccc(NC6CCC(=O)NC6=O)cc5)CC4)CC3)c2)C1 (racemic)", "numeric.readout": 101}
{"compound": "Nc1nnc(-c2ccccc2O)cc1N1CCN(c2ccccc2)C(C(=O)NC2CCN(C(=O)CC3CCN(c4ccc5c(c4)C(=O)N(C4CCC(=O)NC4=O)C5=O)CC3)CC2)C1 (centres unmarked)", "numeric.readout": 122}
{"compound": "Nc1nnc(-c2ccccc2O)cc1N1CC2CCC(C1)N2c1cccc(CN2CCN(CCCOC3CCN(c4ccc5c(c4)C(=O)N(C4CCC(=O)NC4=O)C5=O)CC3)CC2)c1 (racemic)", "numeric.readout": 10}
{"compound": "Nc1nnc(-c2ccccc2O)cc1N1CCN(c2ccccc2)C(C(=O)NC2CCN(C(=O)CCC3CCN(c4ccc5c(c4)C(=O)N(C4CCC(=O)NC4=O)C5=O)CC3)CC2)C1 (centres unmarked)", "numeric.readout": 42}
{"compound": "Cc1c(C(=O)N2CCN(C(=O)C3CCN(c4ccc5c(c4)C(=O)N(C4CCC(=O)NC4=O)C5=O)CC3)CC2)cccc1N1C2CCC1CN(c1cc(-c3ccccc3O)nnc1N)C2 (racemic)", "numeric.readout": 58}

* * *

# Emax per entry
subject.of.test: SMARCA2 (Homo sapiens)
Construct: endogenous in cells; host or cells: HT1080 (CRISPR HiBiT knock-in clone, generated in house)
experiment.notes: SMARCA2 HiBiT degradation assay (cellular)
Format: cell-based
measurement.conditions: A549, 6 h incubation; Emax = amount of residual protein remaining in the cell following compound treatment; table head names A549
measured.endpoint: Emax (%)

{"molecule": "Nc1nnc(-c2ccccc2O)cc1O[C@@H]1CCCN(c2ccc(N3CCN(CCCCCCCCCn4cc(CNc5cccc6c5C(=O)N(C5CCC(=O)NC5=O)C6=O)nn4)CC3)cc2)C1 (stereo partly drawn)", "measure.unit": "%", "numeric.readout": 27}
{"molecule": "Nc1nnc(-c2ccccc2O)cc1N1CC2CCC(C1)N2c1ccc(C(F)(F)F)c(C(=O)N2CCN(C(=O)C3CCN(c4ccc5c(c4)C(=O)N(C4CCC(=O)NC4=O)C5=O)CC3)CC2)c1 (racemic)", "measure.unit": "%", "numeric.readout": 51}
{"molecule": "Nc1nnc(-c2ccccc2O)cc1N1CCC(NC(=O)CC2CCN(C(=O)C3CCN(c4ccc5c(c4)C(=O)N(C4CCC(=O)NC4=O)C5=O)CC3)CC2)(c2ccccc2)CC1 (stereo not drawn)", "measure.unit": "%", "numeric.readout": 65}
